# Organism: Homo sapiens
# test_summary: Inhibition of GSNOR (unknown origin) at 1 uM in presence of NADH incubated for 10 mins by microplate reader analysis relative to control
Classify by measured inhibition: y if it is equal to or exceeds 40%, n if it is smaller.

O=C(O)c1ccc2cc(-c3ccc(-n4ccnc4)cc3)n(Cc3ccc(SC(F)(F)F)cc3)c2c1 ... y
NC(=O)c1ccc(-n2c(-c3ccc(-n4ccnc4)cc3)cc3ccc(C(=O)O)cc32)cc1O ... y
NC(=O)c1ccc(-n2c(-c3ccc(-n4ccnc4)cc3)cc3ccc(C(=O)O)cc32)cc1C(F)(F)F ... y
Cc1cc(C(N)=O)ccc1-n1c(-c2ccc(-c3cn(C)nc3C(F)(F)F)cc2)cc2ccc(C(=O)O)cc21 ... n
NC(=O)c1cccc(Cn2c(-c3ccc(-n4ccnc4)cc3)cc3ccc(C(=O)O)cc32)c1 ... n
Cc1cc(C(N)=O)ccc1-n1c(-c2ccc(N3CCN(C)CC3)cc2)cc2ccc(C(=O)O)cc21 ... n
Cc1cc(C(N)=O)ccc1-n1c(-c2ccc(N3CCOCC3)cc2)cc2ccc(C(=O)O)cc21 ... n
N#Cc1ccc(Cn2c(-c3ccc(-n4ccnc4)cc3)cc3ccc(C(=O)O)cc32)cc1 ... n
O=C(O)c1ccc2cc(-c3ccc(-n4ccnc4)cc3)n(Cc3ccc(N4CCCC4=O)cc3)c2c1 ... y
CCOc1cc(-n2c(-c3ccc(-n4ccnc4)cc3)cc3ccc(C(=O)O)cc32)ccc1C(N)=O ... y
O=C(O)c1ccc2cc(-c3ccc(-n4ccnc4)cc3)n(Cc3ccc(Cl)cc3)c2c1 ... n
N#Cc1ccc(-n2c(-c3ccc(-n4ccnc4)cc3)cc3ccc(C(=O)O)cc32)cc1 ... n
NC(=O)c1ccc(Cn2c(-c3ccc(-n4ccnc4)cc3)cc3ccc(C(=O)O)cc32)cc1 ... n
CCOc1cc(-n2c(-c3ccc(-n4ccnc4)cc3)cc3ccc(C(=O)OC)cc32)ccc1C(N)=O ... n
NC(=O)c1ccc(-n2c(-c3ccc(-n4ccnc4)cc3)cc3ccc(C(=O)O)cc32)cc1Br ... y
Cc1cc(C(N)=O)ccc1-n1c(-c2ccc(-c3cccnc3)cc2)cc2ccc(C(=O)O)cc21 ... n
Cc1cc(C(N)=O)ccc1-n1c(CCC(=O)O)ccc1-c1ccc(-n2ccnc2)cc1 ... y
O=C(O)c1ccc2cc(-c3ccc(-n4ccnc4)cc3)n(Cc3ccc(Br)cc3)c2c1 ... y

###

# test_summary: Stability in rat plasma assessed as half life at 1 uM incubated up to 120 mins by LC-MS/MS analysis
# Type: ADME, cell-free
attribute_measured: half-life at 1 µM (h)

CCOc1cc(-n2c(-c3ccc(-n4ccnc4)cc3)cc3ccc(C(=O)OC)cc32)ccc1C(N)=O ... 4.28

###

# test_summary: Oral bioavailability in male C57BL/6 mouse at 10 mg/kg by LC-MS/MS analysis
# Type: ADME, organism-based
# measurement_context: in vivo
Consider the following molecules and their measured bioavailability readings.
attribute_measured: bioavailability (%)

CCOc1cc(-n2c(-c3ccc(-n4ccnc4)cc3)cc3ccc(C(=O)O)cc32)ccc1C(N)=O ... 6.64
CCOc1cc(-n2c(-c3ccc(-n4ccnc4)cc3)cc3ccc(C(=O)OC)cc32)ccc1C(N)=O ... 11.2

###

# test_summary: Clearance in Sprague-Dawley rat at 10 mg/kg, iv by LC-MS/MS analysis
# Format: ADME, organism-based
# measurement_context: in vivo
Consider the following compounds and their measured clearance readings.
attribute_measured: clearance (mL/min/kg)

CCOc1cc(-n2c(-c3ccc(-n4ccnc4)cc3)cc3ccc(C(=O)O)cc32)ccc1C(N)=O ... 48.5
CCOc1cc(-n2c(-c3ccc(-n4ccnc4)cc3)cc3ccc(C(=O)OC)cc32)ccc1C(N)=O ... 20.9

Taken from ChEMBL document CHEMBL6182937.
